# merged literature set: pKi with Mu-type opioid receptor (Homo sapiens, UniProt P35372)
# Sequence (P35372 whole entry): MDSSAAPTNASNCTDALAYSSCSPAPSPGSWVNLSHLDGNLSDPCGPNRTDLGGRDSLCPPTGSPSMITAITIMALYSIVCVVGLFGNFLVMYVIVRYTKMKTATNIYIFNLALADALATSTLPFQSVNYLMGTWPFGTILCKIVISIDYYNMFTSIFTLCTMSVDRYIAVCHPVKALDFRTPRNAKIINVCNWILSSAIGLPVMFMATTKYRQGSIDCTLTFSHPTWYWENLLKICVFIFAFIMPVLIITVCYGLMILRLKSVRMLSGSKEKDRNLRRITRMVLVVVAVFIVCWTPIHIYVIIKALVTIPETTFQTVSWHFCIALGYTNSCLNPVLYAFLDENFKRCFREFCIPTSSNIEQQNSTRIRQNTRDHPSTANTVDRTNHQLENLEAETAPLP
pKi: −log10 of the molar value.

{"columns": ["molecule", "inequality operator", "pKi"],
 "data": [
  ["COc1ccc(CN(C)CCCNC(=O)c2ccc3ccccc3n2)cc1OC", "=", 7.25],
  ["COc1cccc(NC(=O)N2CCC(c3ccccc3)(c3nccn3Cc3ccccc3)CC2)c1", "=", 5.86],
  ["CN(CCc1ccccn1)[C@H]1C2C3CC4C5C3CC2C5C41 (some centres undefined)", "=", 5.67],
  ["O=C(O)CC1OC2(CCN(CCc3ccccc3)CC2)CN(c2ccccc2)C1=O (centres undefined)", "<", 6.00],
  ["Cc1ccc2nc(NC(=O)c3ccc(Cl)cc3)nc(N[C@@H]3CCCC[C@@H]3NC(=N)N)c2c1 (single isomer, unassigned)", "=", 6.48],
  ["CS(=O)(=O)Nc1cccc([C@H]2[C@@H]3CN(CCCc4ccccc4)C[C@@H]32)c1", "=", 6.77],
  ["CC(C)(C)CCN1CCCc2cc(Oc3ccc(C(N)=O)cn3)ccc2C1", "=", 7.74],
  ["CC[C@H]1C(=O)C[C@@H]2CCN(C)[C@@H]3CCC[C@H]1[C@@H]23", "<", 5.00],
  ["O=C1COC2(CCN(CCc3ccccc3)C2)CN1c1ccccc1 (centres undefined)", "<", 6.00],
  ["CN(C)C(=O)C(CCN[C@@H]1C[C@H]1c1ccc(F)cc1)(c1ccccc1)c1ccccc1 (relative stereo)", "=", 7.33],
  ["CCNC(=O)c1ccc(C(=C2CC3CCC(C2)N3CCOc2ccccc2)c2ccccc2)cc1", "=", 7.03],
  ["NC(=O)c1ccc(Oc2ccc(CN3CCC[C@@H]3c3cccc(F)c3)cc2)c(F)c1", "<", 6.30],
  ["CCNC(=O)c1ccc(C(=C2CC3CCC(C2)N3Cc2c[nH]cn2)c2ccccc2)cc1", "=", 7.00],
  ["COc1cccc(-c2ccc(C(=O)N3CCN(C(=O)c4ccc5cc[nH]c5c4)[C@H](C)C3)cc2)c1", "<", 5.00],
  ["CN(CCCNC(=O)c1ccco1)Cc1ccccc1", "<", 5.00],
  ["CCNC(=O)c1ccc(C(=C2CC3CCC(C2)N3CCO)c2ccccc2)cc1", "=", 7.12],
  ["CCCN1CC[C@H]2C[C@@H](O)[C@H](CC)[C@H]3CCC[C@@H]1[C@H]23", "<", 5.00],
  ["Cc1cccc(CC2NC(=O)CN(Cc3ccccc3)C2=O)c1I (centres undefined)", "<", 5.00],
  ["CN(CCCNC(=O)c1ccc2ccccc2n1)Cc1ccccc1", "=", 5.56],
  ["Cc1cc(F)ccc1C1CCN(CC2Cc3c(Cl)ccc(O)c3CN2)CC1 (centres undefined)", "<", 6.35],
  ["CCCCC(c1cccc(F)c1)N1CC[C@H]1[C@@H](N)c1cccc(Cl)c1 (some centres undefined)", "=", 5.33],
  ["C=CCN1C2CCC1CC(=C(c1ccc(C(=O)NCC)cc1)c1cccc(OC)c1)C2", "=", 7.86],
  ["CC(=O)N[C@H](Cc1c[nH]c2ccc(Cl)cc12)C(=O)N[C@@H](Cc1ccccc1)C(=O)NCC(N)=O", "=", 7.68],
  ["COc1ccc(C2CCCN2Cc2ccc(Oc3ccc(C(=O)NO)cc3)cc2)cc1 (centres undefined)", "=", 5.64],
  ["CN(CCCc1ccccc1)[C@H]1CCCC[C@@H]1O (relative stereo)", "<", 5.00],
  ["C[C@H]1CN(C(=O)c2ccc(-c3cccc(OC(F)(F)F)c3)cc2)CCN1C(=O)c1ccc2cc[nH]c2c1", "<", 5.00],
  ["CN1CCc2c(c3cccc4c3n2Cc2ccccc2C4)C1", "<", 5.00],
  ["CCCCN(CCc1ccccc1)CCc1cccc(O)c1", "=", 6.39],
  ["CCCCC(CCCC)N1CC[C@H]1[C@@H](N)c1cccc(Cl)c1", "=", 5.01],
  ["O=C1CN(Cc2ccccc2)C(=O)C(Cc2cccc(O)c2I)N1 (centres undefined)", "<", 5.00],
  ["CCCCCCN(CCc1ccccc1)CCc1cccc(O)c1", "=", 6.10],
  ["C[C@H]1CN(C(=O)c2ccc(-c3ccccc3Cl)cc2)CCN1C(=O)c1ccc2cc[nH]c2c1", "<", 5.00],
  ["CC[C@H]1C(=O)C[C@@H]2CCN(C(=O)NCc3ccc(Cl)cc3)[C@@H]3CCC[C@H]1[C@@H]23", "<", 5.00],
  ["CCNC(=O)c1ccc(C(=C2CC3CCC(C2)N3CCc2ccccc2)c2ccc(OC)cc2)cc1", "=", 8.21],
  ["CC(=O)N[C@H](Cc1cnc[nH]1)C(=O)N[C@@H](Cc1ccccc1)C(N)=O", "<", 4.00],
  ["COc1ccc(NC(=O)N2CCN(c3ccc(-c4ccccc4)cc3)CC2)cc1N1CCN(C)CC1", "<", 5.00],
  ["O=C(C1Cc2ccccc2CN1)N1CCC2(CCc3ccccc32)CC1 (centres undefined)", "<", 6.35],
  ["NC[C@@]1(Cc2ccccc2)C[C@H]2CC[C@@H](C1)N2C(c1ccccc1Cl)c1ccccc1Cl", "=", 5.87],
  ["C[C@H]1CN(C(=O)c2ccc(-c3cccc(F)c3)cc2)CCN1C(=O)c1ccc2cc[nH]c2c1", "<", 5.00]
]}
